Test system: MDA-MB-435
Assay: Anticancer activity against human MDA-MB-435 cells assessed as cell growth at 0.1 uM incubated for 48 hrs by SRB assay
Type: functional
Conditions: read-out: Activity
Structures can show the parent of a compound that is named as a salt.
For each record, write down the corresponding growth at 0.1 µM.
Response body: numeric value in %, unit text excluded.

**Query** Look up and report measured growth at 0.1 µM for this entry: `Cc1cc(C)n(C(=O)CCn2nc(C)c(Cl)c2C)n1`
**Result** 100

**Query** Look up and report measured growth at 0.1 µM for this entry: `Cc1nn(C[C@@H](O)COc2ccc3c(C)cc(=O)oc3c2)c(C)c1C`
**Result** 100

**Query** Look up and report measured growth at 0.1 µM for this entry: `Cc1cc(C)n2ncc(C(=O)NCc3ccc(Cl)cc3)c2n1`
**Result** 100

**Query** Look up and report measured growth at 0.1 µM for this entry: `Nc1cc(-c2cc3cc(F)ccc3[nH]2)ccc1F`
**Result** 29.5

**Query** Look up and report measured growth at 0.1 µM for this entry: `NC(=O)c1c(NC(=O)Cc2ccc(F)cc2)sc2c1CCCC2`
**Result** 99.7

**Query** Look up and report measured growth at 0.1 µM for this entry: `Cc1cc(C)n(C(=O)CNc2ccccc2Cl)n1`
**Result** 100

**Query** Look up and report measured growth at 0.1 µM for this entry: `Cc1ccc(-c2cc3cc(F)ccc3[nH]2)cc1N`
**Result** 47.8

**Query** Look up and report measured growth at 0.1 µM for this entry: `C[C@H](Oc1ccc(Cl)cc1)C(=O)Nc1sc2c(c1C(N)=O)CCCC2`
**Result** 100

**Query** Look up and report measured growth at 0.1 µM for this entry: COc1cccc2c1C(=O)c1c(O)c3c(c(O)c1C2=O)C[C@@](O)(C(=O)CO)C[C@@H]3O[C@H]1C[C@H](N)[C@H](O)[C@H](C)O1 [DOXORUBICIN HYDROCHLORIDE]
**Result** 50.8

**Query** Look up and report measured growth at 0.1 µM for this entry: `Cc1sc2[nH]c(CNc3ccc(F)cc3)nc(=O)c2c1C`
**Result** 99.9

**Query** Look up and report measured growth at 0.1 µM for this entry: `Cc1cc(C)cc(O[C@H](C)C(=O)Nc2ccc(F)c([N+](=O)[O-])c2)c1`
**Result** 100

**Query** Look up and report measured growth at 0.1 µM for this entry: `Cc1ccc(-c2cc(C(N)=O)c3cc(Cl)ccc3n2)o1`
**Result** 98.4

---

For each record, write down the corresponding activity at 0.25 h, 0.01 µM.
Target: CYP1A1 (Homo sapiens)
Sequence (P04798 whole entry): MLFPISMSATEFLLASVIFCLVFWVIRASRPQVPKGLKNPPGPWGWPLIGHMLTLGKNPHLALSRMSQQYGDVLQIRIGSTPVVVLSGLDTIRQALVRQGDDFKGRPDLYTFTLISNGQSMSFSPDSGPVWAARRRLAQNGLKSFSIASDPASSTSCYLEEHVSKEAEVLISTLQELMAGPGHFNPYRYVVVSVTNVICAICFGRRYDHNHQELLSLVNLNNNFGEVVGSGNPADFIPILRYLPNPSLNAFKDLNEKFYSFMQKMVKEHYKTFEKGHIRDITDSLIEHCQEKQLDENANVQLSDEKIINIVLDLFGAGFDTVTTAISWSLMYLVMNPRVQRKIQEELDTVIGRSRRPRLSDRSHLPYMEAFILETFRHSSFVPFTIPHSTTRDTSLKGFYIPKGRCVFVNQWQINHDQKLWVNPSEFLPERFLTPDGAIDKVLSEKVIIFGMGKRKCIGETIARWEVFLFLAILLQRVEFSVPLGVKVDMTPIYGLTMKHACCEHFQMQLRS
Assay: Inhibition of recombinant CYP1A1 (unknown origin) assessed as residual enzyme activity using 7-ethoxyresorufin as substrate at 0.01 uM incubated for 15 mins by resorufin dye based spectrofluorimetry (reference value: 100%)
Format: ADME
Conditions: recombinant CYP1A1, probe 7-ethoxyresorufin, read-out: Activity
Response body: numeric value in %, unit text excluded.

**Query** Look up and report measured activity at 0.25 h, 0.01 µM for this entry: `Cc1cc(C)cc(O[C@H](C)C(=O)Nc2ccc(F)c([N+](=O)[O-])c2)c1`
**Result** 98.8

**Query** Look up and report measured activity at 0.25 h, 0.01 µM for this entry: `Cc1ccc(-c2cc(C(N)=O)c3cc(Cl)ccc3n2)o1`
**Result** 98.5

**Query** Look up and report measured activity at 0.25 h, 0.01 µM for this entry: `Cc1cc(C)n(C(=O)CNc2ccccc2Cl)n1`
**Result** 101

**Query** Look up and report measured activity at 0.25 h, 0.01 µM for this entry: `Cc1nn(C[C@@H](O)COc2ccc3c(C)cc(=O)oc3c2)c(C)c1C`
**Result** 99.3

**Query** Look up and report measured activity at 0.25 h, 0.01 µM for this entry: `Nc1cc(-c2cc3cc(F)ccc3[nH]2)ccc1F`
**Result** 76.5

**Query** Look up and report measured activity at 0.25 h, 0.01 µM for this entry: `C[C@H](Oc1ccc(Cl)cc1)C(=O)Nc1sc2c(c1C(N)=O)CCCC2`
**Result** 100

**Query** Look up and report measured activity at 0.25 h, 0.01 µM for this entry: `Cc1cc(C)n2ncc(C(=O)NCc3ccc(Cl)cc3)c2n1`
**Result** 98.7

**Query** Look up and report measured activity at 0.25 h, 0.01 µM for this entry: `Cc1cc(C)n(C(=O)CCn2nc(C)c(Cl)c2C)n1`
**Result** 79.9

**Query** Look up and report measured activity at 0.25 h, 0.01 µM for this entry: `NC(=O)c1c(NC(=O)Cc2ccc(F)cc2)sc2c1CCCC2`
**Result** 99.8

**Query** Look up and report measured activity at 0.25 h, 0.01 µM for this entry: `Cc1ccc(-c2cc3cc(F)ccc3[nH]2)cc1N`
**Result** 96.8

**Query** Look up and report measured activity at 0.25 h, 0.01 µM for this entry: `Cc1sc2[nH]c(CNc3ccc(F)cc3)nc(=O)c2c1C`
**Result** 91.7

---

Test system: MCF7
Test: Anticancer activity against human MCF7 cells assessed as inhibition of cell growth
Format: functional, cell-based
For each record, write down the corresponding pIC50.
Just so you know, pIC50 here is -log10 of the concentration in molar units; reply with that number alone.

**Query** Look up and report measured pIC50 for this entry: `COc1ccc(-c2nc3cc(Cl)ccc3s2)cc1OC`
**Result** 4.55

**Query** Look up and report measured pIC50 for this entry: `O=c1c(-c2ccc(Cl)cc2)coc2ccccc12`
**Result** 4.19

**Query** Look up and report measured pIC50 for this entry: `Oc1ccc(-c2nc3cc(C(F)(F)F)ccc3s2)cc1`
**Result** 4.86

**Query** Look up and report measured pIC50 for this entry: `COc1cc(-c2nc3cc(F)ccc3s2)cc(OC)c1OC`
**Result** 8.72

**Query** Look up and report measured pIC50 for this entry: `CCOc1cc(-c2nc3cc(F)ccc3s2)ccc1OC`
**Result** 7.10

**Query** Look up and report measured pIC50 for this entry: `COc1cc(-c2nc3cc(F)ccc3o2)cc(OC)c1OC`
**Result** 4.80

**Query** Look up and report measured pIC50 for this entry: `COc1cccc(OC)c1-c1nc2ccc(F)cc2o1`
**Result** 4.04

**Query** Look up and report measured pIC50 for this entry: `COc1ccc(-c2coc3cc(F)c(F)cc3c2=O)cc1OC`
**Result** 4.38

**Query** Look up and report measured pIC50 for this entry: `Oc1ccc(-c2nc3ccc(Cl)cc3s2)cc1`
**Result** 4.58

**Query** Look up and report measured pIC50 for this entry: `COc1cccc(-c2nc3ccc(F)cc3o2)c1`
**Result** 4.45

**Query** Look up and report measured pIC50 for this entry: `COc1cc(OC)cc(-c2nc3cc(F)ccc3o2)c1`
**Result** 4.34

**Query** Look up and report measured pIC50 for this entry: `COc1ccc(-c2nc3ccc(F)cc3o2)cc1`
**Result** 4.39

**Query** Look up and report measured pIC50 for this entry: `O=c1c(-c2ccc3c(c2)OCO3)coc2ccc(F)cc12`
**Result** 4.22

**Query** Look up and report measured pIC50 for this entry: `COc1ccc(-c2nc3cc(Br)ccc3s2)cc1OC`
**Result** 4.87

**Query** Look up and report measured pIC50 for this entry: `COc1ccc(-c2coc3c(F)cc(F)cc3c2=O)cc1OC`
**Result** 4.33

**Query** Look up and report measured pIC50 for this entry: `Fc1ccc2oc(-c3ccc4c(c3)OCO4)nc2c1`
**Result** 4.21

**Query** Look up and report measured pIC50 for this entry: `Cc1cc(-c2nc3cc(F)ccc3s2)ccc1N`
**Result** 10.00

**Query** Look up and report measured pIC50 for this entry: `COc1cc(OC)cc(-c2nc3ccc(F)cc3o2)c1`
**Result** 5.43

**Query** Look up and report measured pIC50 for this entry: `COc1cc(-c2nc3cc(F)ccc3s2)cc(O)c1OC`
**Result** 6.19

**Query** Look up and report measured pIC50 for this entry: `COc1ccc(-c2nc3cc(F)ccc3s2)cc1I`
**Result** 6.09

**Query** Look up and report measured pIC50 for this entry: `COc1cc(OC)cc(-c2nc3cc(F)ccc3s2)c1`
**Result** 5.91

**Query** Look up and report measured pIC50 for this entry: `COc1ccc(-c2nc3cc(F)ccc3o2)cc1OC`
**Result** 6.08

**Query** Look up and report measured pIC50 for this entry: `COc1cccc(-c2nc3cc(F)ccc3o2)c1`
**Result** 4.40

**Query** Look up and report measured pIC50 for this entry: `COc1ccc(-c2coc3c(F)cccc3c2=O)cc1OC`
**Result** 4.12

**Query** Look up and report measured pIC50 for this entry: `O=c1c(-c2cccc([N+](=O)[O-])c2)coc2ccccc12`
**Result** 5.10

**Query** Look up and report measured pIC50 for this entry: `COc1ccc(-c2coc3c(F)c(F)ccc3c2=O)cc1OC`
**Result** 4.33

**Query** Look up and report measured pIC50 for this entry: `Oc1ccc(-c2nc3cc(F)ccc3s2)cc1`
**Result** 6.40

**Query** Look up and report measured pIC50 for this entry: `COc1ccc(-c2coc3ccc(F)cc3c2=O)cc1OC`
**Result** 4.03

**Query** Look up and report measured pIC50 for this entry: `COc1ccc(-c2nc3cc(F)ccc3s2)cc1C`
**Result** 7.32

**Query** Look up and report measured pIC50 for this entry: `O=c1c(-c2ccc(Br)cc2)coc2ccccc12`
**Result** 5.06

**Query** Look up and report measured pIC50 for this entry: `COc1ccc(-c2nc3ccc(F)cc3s2)cc1OC`
**Result** 7.21

**Query** Look up and report measured pIC50 for this entry: `COc1ccc(-c2nc3cc(F)ccc3s2)cc1Cl`
**Result** 6.12

**Query** Look up and report measured pIC50 for this entry: `COc1ccccc1-c1nc2ccc(F)cc2s1`
**Result** 6.09

**Query** Look up and report measured pIC50 for this entry: `COc1ccc2nc(-c3ccc(O)cc3)sc2c1`
**Result** 4.34

**Query** Look up and report measured pIC50 for this entry: `COc1ccccc1-c1nc2cc(F)ccc2o1`
**Result** 6.44

**Query** Look up and report measured pIC50 for this entry: `COc1ccc(-c2coc3cc(F)ccc3c2=O)cc1`
**Result** 4.36

**Query** Look up and report measured pIC50 for this entry: `COCOc1ccc(-c2nc3cc(F)ccc3s2)cc1OC`
**Result** 7.19

**Query** Look up and report measured pIC50 for this entry: `COc1ccc(-c2cc(=O)c3cc(F)ccc3o2)cc1OC`
**Result** 4.08

**Query** Look up and report measured pIC50 for this entry: `COc1ccc(-c2nc3cc(F)ccc3s2)c(OC)c1OC`
**Result** 7.64

**Query** Look up and report measured pIC50 for this entry: `COc1cccc(OC)c1-c1nc2cc(F)ccc2o1`
**Result** 4.24

**Query** Look up and report measured pIC50 for this entry: `CS(=O)(=O)c1ccc2nc(-c3ccc(O)cc3)sc2c1`
**Result** 4.21

**Query** Look up and report measured pIC50 for this entry: `Cc1c(F)c(N)c2c(=O)cc(-c3ccc(N)c(F)c3)oc2c1F`
**Result** 7.46

**Query** Look up and report measured pIC50 for this entry: `COc1ccc(-c2nc3c(F)cccc3s2)cc1OC`
**Result** 8.30

**Query** Look up and report measured pIC50 for this entry: `Fc1ccc2nc(-c3ccc4c(c3)OCO4)oc2c1`
**Result** 4.72

**Query** Look up and report measured pIC50 for this entry: `Fc1ccc2sc(-c3ccc4c(c3)OCO4)nc2c1`
**Result** 4.68

**Query** Look up and report measured pIC50 for this entry: `COc1ccc(-c2nc3cc(F)ccc3s2)cc1`
**Result** 6.31

**Query** Look up and report measured pIC50 for this entry: `COc1ccc(-c2nc3cc(F)ccc3s2)cc1F`
**Result** 6.06

**Query** Look up and report measured pIC50 for this entry: `COc1ccc(-c2nc3ccc(F)cc3o2)c(OC)c1`
**Result** 4.16

**Query** Look up and report measured pIC50 for this entry: `c1ccc2sc(-c3ccc4c(c3)OCO4)nc2c1`
**Result** 4.24

**Query** Look up and report measured pIC50 for this entry: `COc1cc(-c2nc3ccc(F)cc3o2)cc(OC)c1OC`
**Result** 5.96

**Query** Look up and report measured pIC50 for this entry: `COc1ccc(-c2nc3ccccc3s2)cc1OC`
**Result** 4.28

**Query** Look up and report measured pIC50 for this entry: `Cc1ccc(-c2nc3cc(F)ccc3s2)cc1O`
**Result** 6.30

**Query** Look up and report measured pIC50 for this entry: `COc1ccc(-c2coc3ccccc3c2=O)cc1OC`
**Result** 4.06

Value source: ChEMBL document CHEMBL5257023
